# EXPERIMENTAL TARGET: NaV1.7 (Homo sapiens)
# Construct: expressed in transfected cells; tetracycline-inducible, kept under hygromycin and blasticidin
# Sequence (Q15858 whole entry): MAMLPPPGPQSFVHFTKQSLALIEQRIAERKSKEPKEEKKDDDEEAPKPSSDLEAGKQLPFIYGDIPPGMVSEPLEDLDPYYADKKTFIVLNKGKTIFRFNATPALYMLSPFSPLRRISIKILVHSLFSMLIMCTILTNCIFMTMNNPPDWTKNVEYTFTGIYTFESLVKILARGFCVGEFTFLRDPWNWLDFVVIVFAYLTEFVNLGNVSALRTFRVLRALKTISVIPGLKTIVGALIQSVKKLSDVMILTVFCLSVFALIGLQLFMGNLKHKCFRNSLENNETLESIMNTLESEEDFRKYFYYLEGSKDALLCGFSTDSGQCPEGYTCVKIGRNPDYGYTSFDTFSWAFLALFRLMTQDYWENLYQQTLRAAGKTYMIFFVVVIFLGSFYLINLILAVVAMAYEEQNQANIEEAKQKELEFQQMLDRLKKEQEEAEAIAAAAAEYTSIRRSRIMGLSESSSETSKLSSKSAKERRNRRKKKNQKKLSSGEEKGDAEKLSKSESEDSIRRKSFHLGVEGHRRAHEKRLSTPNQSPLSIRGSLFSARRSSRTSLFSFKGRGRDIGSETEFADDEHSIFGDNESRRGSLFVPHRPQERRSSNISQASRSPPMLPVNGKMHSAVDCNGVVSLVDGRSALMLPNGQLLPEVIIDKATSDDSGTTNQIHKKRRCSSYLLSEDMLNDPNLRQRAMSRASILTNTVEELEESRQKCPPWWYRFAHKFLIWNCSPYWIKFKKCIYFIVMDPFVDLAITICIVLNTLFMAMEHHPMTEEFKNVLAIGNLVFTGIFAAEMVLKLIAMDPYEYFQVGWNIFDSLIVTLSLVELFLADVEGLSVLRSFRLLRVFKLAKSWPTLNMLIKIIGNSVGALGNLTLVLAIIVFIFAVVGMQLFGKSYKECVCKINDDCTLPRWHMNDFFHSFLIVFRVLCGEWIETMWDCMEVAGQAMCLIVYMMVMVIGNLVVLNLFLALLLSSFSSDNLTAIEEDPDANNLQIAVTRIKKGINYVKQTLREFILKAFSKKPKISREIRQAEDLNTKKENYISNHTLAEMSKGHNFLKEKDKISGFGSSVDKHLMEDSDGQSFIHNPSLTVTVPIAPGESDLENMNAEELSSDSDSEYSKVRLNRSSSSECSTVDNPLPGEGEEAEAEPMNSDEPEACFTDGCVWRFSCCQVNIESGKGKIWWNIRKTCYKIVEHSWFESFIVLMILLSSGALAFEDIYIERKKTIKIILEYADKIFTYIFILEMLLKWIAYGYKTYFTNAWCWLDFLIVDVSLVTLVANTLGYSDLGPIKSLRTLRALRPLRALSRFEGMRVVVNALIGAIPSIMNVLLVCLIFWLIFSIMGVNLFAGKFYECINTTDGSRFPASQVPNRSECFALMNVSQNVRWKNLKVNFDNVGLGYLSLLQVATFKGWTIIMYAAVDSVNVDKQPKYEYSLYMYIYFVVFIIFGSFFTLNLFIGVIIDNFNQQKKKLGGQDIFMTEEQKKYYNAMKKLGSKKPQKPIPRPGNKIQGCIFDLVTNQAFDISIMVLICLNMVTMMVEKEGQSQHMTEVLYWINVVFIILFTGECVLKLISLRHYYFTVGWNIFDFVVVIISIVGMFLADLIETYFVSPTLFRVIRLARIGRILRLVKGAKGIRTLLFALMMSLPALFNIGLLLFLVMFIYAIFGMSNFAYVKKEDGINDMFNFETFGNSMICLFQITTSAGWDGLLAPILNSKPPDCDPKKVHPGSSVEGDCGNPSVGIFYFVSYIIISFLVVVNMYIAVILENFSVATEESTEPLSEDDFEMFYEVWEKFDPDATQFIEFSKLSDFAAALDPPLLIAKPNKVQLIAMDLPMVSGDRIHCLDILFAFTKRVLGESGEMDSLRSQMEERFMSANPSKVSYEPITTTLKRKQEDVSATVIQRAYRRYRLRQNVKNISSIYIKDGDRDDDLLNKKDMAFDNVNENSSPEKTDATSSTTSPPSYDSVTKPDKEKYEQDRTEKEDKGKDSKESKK
# ASSAY NOTES: Automated patch clamp (Qube 384), internal block of NaV1.7 in HEK293 cells
# Type: cell-based
# PARTICULARS: compound in internal solution, read-out: Nav1.7 Intracellular Inhibition (IC50)
QUANTITY NAME: IC50

>>> val("CCOC(=O)Cn1ccc(C)[n+]1CC(=O)Nc1c(C)cccc1C")
"3 to 10 µM"
>>> val("Cc1cccc(C)c1NC(=O)C[n+]1cc(OCc2ccccc2)ccc1Cl")
"3 to 10 µM"
>>> val("Cc1cccc(C)c1NC(=O)C[n+]1c2ccc(Cl)cc2cn1C")
"3 to 10 µM"
>>> val("Cc1cccc(C)c1NC(=O)C[n+]1cccc(C(C)(C)C)c1")
"1 to 3 µM"
>>> val("CCCCn1ccc[n+]1CC(=O)Nc1c(C)cccc1C")
"1 to 3 µM"
>>> val("Cc1cccc(C)c1NC(=O)C[n+]1cccc(S(C)(=O)=O)c1")
"3 to 10 µM"
>>> val("Cc1cccc(C)c1NC(=O)C[n+]1cccn1CC1CC1")
"1 to 3 µM"
>>> val("CCCn1ccc(C)[n+]1CC(=O)Nc1c(C)cccc1C")
"3 to 10 µM"
>>> val("CCn1c(C)cc[n+]1CC(=O)Nc1c(C)cccc1C")
"1 to 3 µM"
>>> val("CCOC(=O)Cn1c(C)cc[n+]1CC(=O)Nc1c(C)cccc1C")
"3 to 10 µM"
